experiment: AUC in rat at 5 mg/kg, po; assay type: ADME, organism-based; set-up: dose 5 mg/kg, route oral; details: plasma
Quick list: AUC per entry.
Supply the numeric figure in ng·h/mL, leaving out any unit text.

QUERY: For `Cc1ccc([C@H](C(=O)N2CCOCC2)N2C(=O)[C@@H](C3Cc4ccccc4C3)NC(=O)[C@H]2CC(C)(C)C)cn1` , what is its reported AUC?
RESULT: 770

QUERY: // returns reported AUC for input `Cc1ccc([C@H](C(=O)N2CCOCC2)N2C(=O)[C@@H](C3Cc4ccccc4C3)NC(=O)[C@H]2CC(C)C)cn1`
RESULT: 811

QUERY: Name the recorded AUC for `CC(C)C[C@@H]1C(=O)N[C@H](C2Cc3ccccc3C2)C(=O)N1[C@@H](C(=O)N1CCOCC1)c1ccc(N(C)C)nc1` .
RESULT: 80
